Reference for the values: the Kinase Knowledgebase extract (Sharma et al. 2016)

tested.system: EGFR (UniProt P00533)
Sequence (P00533 whole entry, looked up): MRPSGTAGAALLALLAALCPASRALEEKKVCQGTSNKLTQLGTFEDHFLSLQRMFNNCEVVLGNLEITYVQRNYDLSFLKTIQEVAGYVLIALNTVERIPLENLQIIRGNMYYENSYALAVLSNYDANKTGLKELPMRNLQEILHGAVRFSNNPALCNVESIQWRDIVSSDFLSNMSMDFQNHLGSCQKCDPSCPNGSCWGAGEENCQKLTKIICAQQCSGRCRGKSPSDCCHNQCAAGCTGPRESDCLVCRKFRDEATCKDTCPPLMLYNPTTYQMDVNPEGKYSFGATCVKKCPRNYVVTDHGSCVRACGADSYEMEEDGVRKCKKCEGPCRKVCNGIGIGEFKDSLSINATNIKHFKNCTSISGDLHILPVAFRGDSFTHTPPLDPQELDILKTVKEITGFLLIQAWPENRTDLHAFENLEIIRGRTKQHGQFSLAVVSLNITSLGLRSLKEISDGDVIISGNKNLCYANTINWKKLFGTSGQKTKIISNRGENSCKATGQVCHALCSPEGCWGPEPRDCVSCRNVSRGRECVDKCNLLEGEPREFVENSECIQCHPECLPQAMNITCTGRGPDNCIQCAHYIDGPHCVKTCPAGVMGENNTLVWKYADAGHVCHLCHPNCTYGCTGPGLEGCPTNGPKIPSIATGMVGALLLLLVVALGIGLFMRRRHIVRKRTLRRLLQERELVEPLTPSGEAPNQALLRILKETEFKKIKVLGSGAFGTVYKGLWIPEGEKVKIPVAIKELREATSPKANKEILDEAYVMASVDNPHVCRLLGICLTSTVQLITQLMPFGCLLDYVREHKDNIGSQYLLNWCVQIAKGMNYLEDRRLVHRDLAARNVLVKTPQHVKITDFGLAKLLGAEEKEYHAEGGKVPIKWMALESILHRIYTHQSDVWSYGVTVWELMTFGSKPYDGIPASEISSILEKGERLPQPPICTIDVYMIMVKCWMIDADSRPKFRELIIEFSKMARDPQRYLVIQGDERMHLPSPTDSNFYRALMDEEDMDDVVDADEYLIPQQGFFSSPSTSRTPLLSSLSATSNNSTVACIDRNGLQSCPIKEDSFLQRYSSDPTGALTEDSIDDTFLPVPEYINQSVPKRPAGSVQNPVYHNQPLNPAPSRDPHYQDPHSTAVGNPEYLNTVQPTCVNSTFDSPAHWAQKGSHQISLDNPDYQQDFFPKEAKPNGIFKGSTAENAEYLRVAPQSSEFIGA

{"molecule": "Cc1c(C)n(C)c2ncnc(Nc3cccc(Cl)c3)c12", "IC50": "0.45 µM"}

###

tested.system: EGFR (mouse) (UniProt P00533)
condition.notes: balb/mk
pIC50: −log10 of the molar value.

{"molecule": "Clc1cccc(Nc2n[nH]c3ncnc(Oc4cccc(Cl)c4)c23)c1", "tested.system": "EGFR (mouse) (UniProt P00533)", "pIC50": "< 4.30"}
{"molecule": "Nc1ncnc2c1c(-c1ccccc1)nn2-c1ccccc1", "tested.system": "EGFR (mouse) (UniProt P00533)", "pIC50": "< 4.30"}
{"molecule": "O=[N+]([O-])c1cccc(-c2n[nH]c3ncnc(Nc4cccc(Cl)c4)c23)c1", "tested.system": "EGFR (mouse) (UniProt P00533)", "pIC50": "< 4.30"}
